The measurements presented in this section are drawn from patent US20170355757A1.

- TARGET_ENTITY: T1, monkey C5-mmh (monkey, UniProt P01031 19-1676 (human entry), limits assumed)
- T1 construct: Expressed with a C-terminal myc-myc-hexahistidine tag
- T1 chain: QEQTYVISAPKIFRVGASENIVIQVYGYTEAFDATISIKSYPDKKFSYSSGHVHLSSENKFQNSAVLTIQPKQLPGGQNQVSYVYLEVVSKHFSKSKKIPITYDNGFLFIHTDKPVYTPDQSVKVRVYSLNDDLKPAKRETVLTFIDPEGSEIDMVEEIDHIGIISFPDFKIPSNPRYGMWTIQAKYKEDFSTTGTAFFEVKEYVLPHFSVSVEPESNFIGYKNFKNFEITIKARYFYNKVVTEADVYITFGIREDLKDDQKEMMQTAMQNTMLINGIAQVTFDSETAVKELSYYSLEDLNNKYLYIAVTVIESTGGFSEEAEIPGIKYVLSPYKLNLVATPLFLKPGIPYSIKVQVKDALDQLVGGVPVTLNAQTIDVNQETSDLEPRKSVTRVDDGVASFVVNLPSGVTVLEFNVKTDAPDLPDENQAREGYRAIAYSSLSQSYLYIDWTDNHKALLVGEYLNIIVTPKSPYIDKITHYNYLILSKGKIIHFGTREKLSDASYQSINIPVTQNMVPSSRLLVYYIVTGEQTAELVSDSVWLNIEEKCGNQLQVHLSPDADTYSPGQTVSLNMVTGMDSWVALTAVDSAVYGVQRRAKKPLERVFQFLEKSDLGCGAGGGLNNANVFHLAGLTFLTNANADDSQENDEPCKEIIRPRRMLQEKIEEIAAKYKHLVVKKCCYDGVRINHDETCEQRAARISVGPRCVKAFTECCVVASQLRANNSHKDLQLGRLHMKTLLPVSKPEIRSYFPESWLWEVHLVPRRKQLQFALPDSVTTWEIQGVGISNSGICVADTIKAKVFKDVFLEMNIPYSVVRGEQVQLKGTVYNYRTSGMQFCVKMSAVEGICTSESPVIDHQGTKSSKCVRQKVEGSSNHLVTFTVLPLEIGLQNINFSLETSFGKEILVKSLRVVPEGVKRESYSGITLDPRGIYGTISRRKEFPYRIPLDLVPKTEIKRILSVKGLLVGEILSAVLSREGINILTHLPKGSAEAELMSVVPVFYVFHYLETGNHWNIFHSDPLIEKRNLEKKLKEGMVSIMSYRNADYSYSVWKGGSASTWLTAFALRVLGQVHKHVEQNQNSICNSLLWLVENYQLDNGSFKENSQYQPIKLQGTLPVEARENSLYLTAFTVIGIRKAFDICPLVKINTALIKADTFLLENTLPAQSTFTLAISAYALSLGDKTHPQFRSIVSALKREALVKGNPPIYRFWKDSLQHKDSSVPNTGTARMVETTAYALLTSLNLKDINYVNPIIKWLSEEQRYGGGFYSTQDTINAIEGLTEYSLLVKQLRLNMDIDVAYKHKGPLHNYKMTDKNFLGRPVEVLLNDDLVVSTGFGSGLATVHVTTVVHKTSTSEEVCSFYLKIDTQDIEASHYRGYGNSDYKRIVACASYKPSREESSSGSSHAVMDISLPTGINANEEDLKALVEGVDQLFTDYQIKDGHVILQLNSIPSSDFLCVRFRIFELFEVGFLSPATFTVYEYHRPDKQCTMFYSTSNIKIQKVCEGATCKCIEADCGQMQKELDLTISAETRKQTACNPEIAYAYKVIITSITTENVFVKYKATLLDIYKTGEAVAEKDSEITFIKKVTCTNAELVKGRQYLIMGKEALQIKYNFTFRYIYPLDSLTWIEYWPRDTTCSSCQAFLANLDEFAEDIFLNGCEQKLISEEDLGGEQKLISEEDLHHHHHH
- ASSAY_TEXT: SPR, mAb captured by anti-hFc, 25C
Tag: 1.0 if measured kon is not below 200000 M⁻¹ s⁻¹, 0.0 if it is.

BINDER	CLASS
H4H12166P4 (antibody, human IgG4, V domains shown, human IgG4 Fc with S108P hinge mutation) VH: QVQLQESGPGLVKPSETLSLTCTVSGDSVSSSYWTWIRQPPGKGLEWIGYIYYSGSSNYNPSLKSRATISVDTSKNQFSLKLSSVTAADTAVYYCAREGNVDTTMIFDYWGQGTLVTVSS VL: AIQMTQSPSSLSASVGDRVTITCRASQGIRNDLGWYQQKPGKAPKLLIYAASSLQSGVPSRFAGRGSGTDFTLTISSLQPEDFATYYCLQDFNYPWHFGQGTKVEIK	1.0
H4H11686N (antibody, human IgG4, V domains shown, also called H2M11686N) VH: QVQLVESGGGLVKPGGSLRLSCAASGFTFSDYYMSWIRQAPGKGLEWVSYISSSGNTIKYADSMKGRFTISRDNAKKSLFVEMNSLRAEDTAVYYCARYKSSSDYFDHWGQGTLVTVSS VL: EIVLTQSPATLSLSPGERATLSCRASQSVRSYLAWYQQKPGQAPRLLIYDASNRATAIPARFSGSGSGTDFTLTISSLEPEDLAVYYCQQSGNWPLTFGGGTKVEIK	0.0
H4H12166P10 (antibody, human IgG4, V domains shown, human IgG4 Fc with S108P hinge mutation) VH: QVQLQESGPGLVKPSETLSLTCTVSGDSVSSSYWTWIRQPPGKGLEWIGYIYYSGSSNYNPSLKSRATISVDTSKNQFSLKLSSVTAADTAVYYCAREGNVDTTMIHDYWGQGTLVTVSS VL: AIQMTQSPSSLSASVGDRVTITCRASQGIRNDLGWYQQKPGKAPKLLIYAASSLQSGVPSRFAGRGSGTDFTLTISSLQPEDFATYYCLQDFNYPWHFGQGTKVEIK	0.0
H4H12175P (antibody, human IgG4, V domains shown) VH: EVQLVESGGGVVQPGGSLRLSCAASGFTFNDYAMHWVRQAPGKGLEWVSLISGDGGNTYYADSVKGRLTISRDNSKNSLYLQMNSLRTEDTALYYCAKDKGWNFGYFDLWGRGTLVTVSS VL: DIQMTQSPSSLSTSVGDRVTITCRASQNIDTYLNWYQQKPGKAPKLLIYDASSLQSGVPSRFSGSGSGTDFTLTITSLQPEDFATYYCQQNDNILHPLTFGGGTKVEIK	0.0
H4H12170P (antibody, human IgG4, V domains shown) VH: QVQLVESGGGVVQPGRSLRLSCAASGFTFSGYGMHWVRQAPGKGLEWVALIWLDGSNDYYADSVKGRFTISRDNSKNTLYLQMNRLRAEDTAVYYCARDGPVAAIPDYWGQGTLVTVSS VL: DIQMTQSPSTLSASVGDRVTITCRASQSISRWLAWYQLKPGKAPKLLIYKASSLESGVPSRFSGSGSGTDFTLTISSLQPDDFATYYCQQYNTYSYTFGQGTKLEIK	1.0
